# Tested on: Aspergillus fumigatus
# assayDetails: Antifungal activity against Aspergillus fumigatus MTCC 343 by two-fold serial dilution method
# Type: functional
For each entry below, report its MIC value.

stdin: Which measured MIC belongs to `Cc1ccc(-c2nc3ccccc3c3c2c(-c2ccccc2)c(-c2ccccc2)n2c(=S)[nH]nc32)cc1` , tested on Aspergillus fumigatus?
stdout: > 100 µg/mL

stdin: Further, for `O=C(O)c1cc(-c2ccc(Cl)cc2)[n+](C/C(=N/N=C2/N=C(c3ccccc3)CS2)c2ccccc2)c2ccccc12.[I-]` ?
stdout: > 100 µg/mL

stdin: Further, for `Nc1ccc(C2=N/C(=N/N=C(/C[n+]3c(-c4ccc(Cl)cc4)cc(C(=O)O)c4ccccc43)c3ccccc3)SC2)cc1.[I-]` ?
stdout: > 100 µg/mL

stdin: Further, for `S=c1[nH]nc2c3c(c(-c4ccccc4)nc4ccccc43)c(-c3ccccc3)c(-c3ccccc3)n12` ?
stdout: > 100 µg/mL

stdin: Further, for `O=C(O)c1cc(-c2ccccc2)[n+](C/C(=N/N=C2/N=C(c3ccccc3)CS2)c2ccccc2)c2ccccc12.[I-]` ?
stdout: 25 µg/mL

stdin: Further, for `Cc1ccc(-c2cc(C(=O)O)c3ccccc3[n+]2C/C(=N/N=C2/N=C(c3ccccc3)CS2)c2ccccc2)cc1.[I-]` ?
stdout: > 100 µg/mL

stdin: Further, for `Cc1ccc(-c2cc(C(=O)O)c3ccccc3[n+]2C/C(=N/N=C2/N=C(c3ccc(N)cc3)CS2)c2ccccc2)cc1.[I-]` ?
stdout: > 50 µg/mL

stdin: Further, for `S=c1[nH]nc2c3c(c(-c4ccc(Cl)cc4)nc4ccccc43)c(-c3ccccc3)c(-c3ccccc3)n12` ?
stdout: > 100 µg/mL

###

# Tested on: Staphylococcus aureus
# assayDetails: Antibacterial activity against Staphylococcus aureus ATCC 9144 by disk diffusion method
# Format: functional
readoutKind: diameter of the inhibition zone (DIZ) (mm)
Quick reminder: number only, in mm, skip the unit.

stdin: Look at this compound and give its reported diameter of the inhibition zone (DIZ). `O=c1[nH]nc2c3c(c(-c4ccccc4)nc4ccccc43)c(-c3ccccc3)c(-c3ccccc3)n12`
stdout: 8

stdin: Further, for `Cc1ccc(-c2cc(C(=O)O)c3ccccc3[n+]2C/C(=N/N=C2/N=C(c3ccc(N)cc3)CS2)c2ccccc2)cc1.[I-]` ?
stdout: 40

stdin: Further, for `Nc1ccc(C2=N/C(=N/N=C(/C[n+]3c(-c4ccccc4)cc(C(=O)O)c4ccccc43)c3ccccc3)SC2)cc1.[I-]` ?
stdout: 24

stdin: Further, for `O=C(O)c1cc(-c2ccc(Cl)cc2)[n+](C/C(=N/N=C2/N=C(c3ccccc3)CS2)c2ccccc2)c2ccccc12.[I-]` ?
stdout: 15

stdin: Further, for `Cc1ccc(-c2nc3ccccc3c3c2c(-c2ccccc2)c(-c2ccccc2)n2c(=O)[nH]nc32)cc1` ?
stdout: 11

stdin: Further, for `S=c1[nH]nc2c3c(c(-c4ccc(Cl)cc4)nc4ccccc43)c(-c3ccccc3)c(-c3ccccc3)n12` ?
stdout: 20

stdin: Further, for `Nc1ccc(C2=N/C(=N/N=C(/C[n+]3c(-c4ccc(Cl)cc4)cc(C(=O)O)c4ccccc43)c3ccccc3)SC2)cc1.[I-]` ?
stdout: 34

stdin: Further, for `O=C(O)c1cc(-c2ccccc2)[n+](C/C(=N/N=C2/N=C(c3ccccc3)CS2)c2ccccc2)c2ccccc12.[I-]` ?
stdout: 18

stdin: Further, for `O=c1[nH]nc2c3c(c(-c4ccc(Cl)cc4)nc4ccccc43)c(-c3ccccc3)c(-c3ccccc3)n12` ?
stdout: 9

stdin: Further, for `Cc1ccc(-c2cc(C(=O)O)c3ccccc3[n+]2C/C(=N/N=C2/N=C(c3ccccc3)CS2)c2ccccc2)cc1.[I-]` ?
stdout: 14

stdin: Further, for `S=c1[nH]nc2c3c(c(-c4ccccc4)nc4ccccc43)c(-c3ccccc3)c(-c3ccccc3)n12` ?
stdout: 8

stdin: Further, for `Cc1ccc(-c2nc3ccccc3c3c2c(-c2ccccc2)c(-c2ccccc2)n2c(=S)[nH]nc32)cc1` ?
stdout: 6
